Cited source: ChEMBL document CHEMBL4229344

Could you please report measured GI50 for the items listed next?
Form entry: value (nM) — number only.

Problem: Param readout= GI50; system= Platelet-derived growth factor receptor alpha (Homo sapiens); entry= `Cc1ccc(NC(=O)c2ccc(CN(CCN(C)C)C(=O)CN(C)C)cc2)cc1Nc1nccc(-c2cccnc2)n1` ; returns value.
Solution: 120

Problem: Param readout= GI50; system= Platelet-derived growth factor receptor alpha (Homo sapiens); entry= `C/C=C/C(=O)N(CCN(C)C)Cc1ccc(C(=O)Nc2ccc(C)c(Nc3nccc(-c4cccnc4)n3)c2)cc1` ; returns value.
Solution: 54

Problem: Param readout= GI50; system= Platelet-derived growth factor receptor alpha (Homo sapiens); entry= `Cc1ccc(NC(=O)c2ccc(CNC(=O)c3cccnc3)c(C(F)(F)F)c2)cc1Nc1nccc(-c2cccnc2)n1` ; returns value.
Solution: 5

Problem: Param readout= GI50; system= Platelet-derived growth factor receptor alpha (Homo sapiens); entry= `CCC(=O)Nc1ccc(C(=O)Nc2ccc(C)c(Nc3nccc(-c4cccnc4)n3)c2)cc1` ; returns value.
Solution: 12

Problem: Param readout= GI50; system= Platelet-derived growth factor receptor alpha (Homo sapiens); entry= `Cc1ccc(NC(=O)c2ccc(CNCCN(C)C)cc2)cc1Nc1nccc(-c2cccnc2)n1` ; returns value.
Solution: 24

Problem: Param readout= GI50; system= Platelet-derived growth factor receptor alpha (Homo sapiens); entry= `C=CS(=O)(=O)NCc1ccc(C(=O)Nc2ccc(C)c(Nc3nccc(-c4cccnc4)n3)c2)cc1` ; returns value.
Solution: 13

Problem: Param readout= GI50; system= Platelet-derived growth factor receptor alpha (Homo sapiens); entry= `C=CC(=O)NCc1ccc(C(=O)Nc2ccc(C)c(Nc3nccc(-c4cccnc4)n3)c2)cc1C(F)(F)F` ; returns value.
Solution: 59

Problem: Param readout= GI50; system= Platelet-derived growth factor receptor alpha (Homo sapiens); entry= `Cc1ccc(NC(=O)c2ccc(CN(CCN3CCCC3)C(=O)c3cccnc3)cc2)cc1Nc1nccc(-c2cccnc2)n1` ; returns value.
Solution: 39
